Hello, the source for this data is patent US10222368B2, in case you need it.

Reported MOR agonist activity, [35S]GTPγS binding, FLNA-binding compound as agonist at 1 μM values follow for various compounds
- Assayed System: mu opiate receptor (MOR) (Rattus norvegicus, UniProt P33535)
- Construct: from tissue; host or cells: striatal tissue (membrane preparation)
- Sequence (P33535 whole entry): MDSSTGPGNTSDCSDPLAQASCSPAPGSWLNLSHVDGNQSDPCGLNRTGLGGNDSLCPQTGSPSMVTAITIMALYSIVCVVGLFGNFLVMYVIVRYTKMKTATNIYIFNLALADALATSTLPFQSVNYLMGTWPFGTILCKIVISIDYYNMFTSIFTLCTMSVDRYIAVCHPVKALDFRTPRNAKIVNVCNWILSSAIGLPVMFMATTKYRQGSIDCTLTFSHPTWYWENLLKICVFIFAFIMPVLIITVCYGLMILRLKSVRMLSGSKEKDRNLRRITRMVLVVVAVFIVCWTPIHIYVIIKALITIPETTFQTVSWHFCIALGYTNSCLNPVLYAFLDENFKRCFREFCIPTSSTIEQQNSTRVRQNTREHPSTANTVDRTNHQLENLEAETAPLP
- Test Protocol: MOR agonist activity using [35S]GTPγS binding assay in striatal membranes
- Format: biochemical
- Condition Description: 1 μM compound; striatal membranes; Series C-2
Value expressed in %; do not type the unit.

Worked examples, 4 compounds total:
COc1ccc(S(=O)(=O)N2CCOC23CCCNC3)cc1 (centres unmarked) [Compound C0145M-3]    289.2
COc1ccc(S(=O)(=O)N2CCOC23CCN(C(=O)OC(C)(C)C)CC3)cc1    242.6
CCCCN1CCC2(CC1)OCCN2S(=O)(=O)c1ccc(OC)cc1 [Compound C0102M]    272.0
COc1ccc(S(=O)(=O)N2CCC3(NCCO3)C3CCCCC32)cc1 (centres unmarked) [Compound C0144M-2]    295.9

Then there is this compound:
Recorded MOR agonist activity, [35S]GTPγS binding, FLNA-binding compound as agonist at 1 μM for COc1ccc(S(=O)(=O)N2CCC3(CC2)NCCC(=O)N3)cc1 [Compound C0142M] with mu opiate receptor (MOR) (Rattus norvegicus, UniProt P33535), please? 192.5

---

- Assayed System: mu opiate receptor (MOR) (Rattus norvegicus, UniProt P33535)
- Construct: from tissue; host or cells: striatal tissue (membrane preparation)
- Test Protocol: MOR agonist activity using [35S]GTPγS binding assay in striatal membranes
- Assay type: biochemical
- Condition Description: 1 μM compound; striatal membranes; Series C-2
- Procedure: To assess the mu opiate receptor (MOR) agonist activity of positive compounds from the FLNA screening, compounds were tested in a [^35S]GTPγS binding assay using striatal membranes. […] The immunocomplexes so formed were collected by incubation at 25° C. for 30 minutes with 40 μl of agarose-conjugated protein A/G beads and centrifugation at 5,000×g at 4° C. for 5 minutes. […] The radioactivity in the suspension was determined by liquid scintillation spectrometry.
Please assign a class to every record based on measured MOR agonist activity, [35S]GTPγS binding, FLNA-binding compound as agonist at 1 μM, with ranges bin 1: < 200%; bin 2: ≥ 200% and < 300%; bin 3: ≥ 300%

O=[N+]([O-])c1ccc(S(=O)(=O)N2CCC3(CC2)NCCCO3)cc1    bin 2
O=C1CN(Cc2ccccc2)C2(CCNCC2)N1 [Compound C0115M]    bin 2
CC(=O)c1ccc(S(=O)(=O)N2CCOC23CCN(CC(=O)O)CC3)cc1 [Compound C0100M]    bin 2
CC(=O)c1ccc(S(=O)(=O)N2CC(CN(C)C)OC23CCNCC3)cc1 (stereo not drawn) [Compound C0118M]    bin 2

The entry to classify is CCN1CCC2(CC1)OCCN2S(=O)(=O)c1ccc(C(C)=O)cc1 [Compound C0094M] ; which class holds it? bin 2

The entry to classify is CN1CCC2(CC1)NC(=O)CN2Cc1ccccc1 [Compound C0104M] ; which class holds it? bin 2

The entry to classify is COc1ccc(S(=O)(=O)N2CCOC23CCN(CC2CC2)CC3)cc1 [Compound C0090M] ; which class holds it? bin 3

The entry to classify is CCc1ccc(S(=O)(=O)N2CCOC23CCN(CC2CC2)CC3)cc1 [Compound C0135M] ; which class holds it? bin 3

The entry to classify is "O=[N+]([O-])c1ccc(S(=O)(=O)N2CCC3(CC2)NCCS3)cc1" ; which class holds it? bin 2

The entry to classify is O=C1CNC2(CCNCC2)N1Cc1ccccc1 [Compound C0114M] ; which class holds it? bin 1

The entry to classify is "CC(=O)N1CCSC12CCN(S(=O)(=O)c1ccc([N+](=O)[O-])cc1)CC2" ; which class holds it? bin 1
